System: MDA-MB-231 cells
experimental.protocol: Cell proliferation assay (CellTiter-Glo), MDA-MB-231
Type: cell-based
test.settings: Homo sapiens, MDA-MB-231, 72 h, 72 h treatment, Celltiter-Glo luminescence
Measured pIC50 of individual entries
Reminder that pIC50 means the negative base-10 logarithm of the concentration expressed in mol/L.

>  <molecule>
C[C@@H]1CN(CC(=O)N2CC(C)(C)c3c2cc(Cc2ccc(F)cc2)c2cnc(-c4ccc(F)cc4)n32)[C@@H](CN2CCOC[C@H]2C)CN1 [Example 8]

>  <pIC50>
7.44

$$$$

Now for another entry.
Prompt: Which pIC50 is listed for C[C@@H]1CN(CC(=O)N2CC(C)(C)c3c2cc(Cc2ccc(F)cc2)c2nc(C#N)cn32)[C@@H](CN2CCOC[C@H]2C)CN1 [Example 21] ?
Completion: 7.64

###

Tested on: MDA-MB-231 cells
experimental.protocol: Cell proliferation assay (CellTiter-Glo), MDA-MB-231
Format: cell-based
test.settings: Homo sapiens, MDA-MB-231, 72 h, 72 h treatment, Celltiter-Glo luminescence
measure.name: IC50 (nM)
A number alone suffices; assume nM.

>  <compound>
C[C@@H]1CN(CC(=O)N2CC(C)(C)c3c2cc(Cc2ccc(F)cc2)c2nnc(C#N)n32)[C@@H](CN2CCOC[C@H]2C)CN1 [Compound 153]

>  <IC50 / nM>
38

$$$$
>  <compound>
C[C@@H]1CN(CC(=O)N2CC(C)(C)c3c2cc(Cc2ccccc2F)c2ncnn32)[C@@H](CN2CCOC[C@H]2C)CN1 [Compound 38]

>  <IC50 / nM>
150

$$$$
>  <compound>
CC(c1ccc(F)cc1)c1cc2c(n3ncnc13)C(C)(C)CN2C(=O)CN1C[C@@H](C)NC[C@@H]1CN1CCOC[C@H]1C (stereo partly shown) [Compound 45]

>  <IC50 / nM>
180

$$$$
>  <compound>
C[C@@H]1CN(CC(=O)N2CC(C)(C)c3c2cc(Cc2ccc(F)cc2)c2nn(CC(C)(C)O)c(=O)n32)[C@@H](CN2CCOC[C@H]2C)CN1 [Compound 231]

>  <IC50 / nM>
28

$$$$

Prompt: If you can, please state the reported IC50 value of C[C@@H]1CN(CC(=O)N2CC(C)(C)c3c2cc(Cc2ccc(F)cc2)c2nc(C4CCOCC4)nn32)[C@@H](CN2CCOC[C@H]2C)CN1 [Compound 140] .
Completion: 45

Prompt: Would you mind doing C[C@@H]1CN(CC(=O)N2CC(C)(C)c3c2cc(Cc2ccc(F)cc2)c2nn(C(C)(C)CO)c(=O)n32)[C@@H](CN2CCOC[C@H]2C)CN1 [Compound 260] as well?
Completion: 29

Prompt: Same again, this time with C[C@@H]1CN(CC(=O)N2CC(C)(C)c3c2cc(Cc2ccc(F)cc2)c2nnc(N)n32)[C@@H](CN2CCOC[C@H]2C)CN1 [Compound 136]
Completion: 1390

Prompt: Now this one: COC(=O)N1CCN(C[C@H]2CN[C@H](C)CN2CC(=O)N2CC(C)(C)c3c2cc(Cc2ccc(F)cc2)c2nn(CC(C)(C)O)c(=O)n32)[C@H](C)C1 [Compound 280]
Completion: 68

Prompt: Now the compound Cc1nc(C)c(Cc2cc3c(n4ncnc24)C(C)(C)CN3C(=O)CN2C[C@@H](C)NC[C@@H]2CN2CCOC[C@H]2C)s1 [Compound 158]
Completion: 720

Prompt: // same read-out, input: COCC(COC)n1nc2c(Cc3ccc(F)cc3)cc3c(n2c1=O)C(C)(C)CN3C(=O)CN1C[C@@H](C)NC[C@@H]1CN1CCOC[C@H]1C [Compound 261]
Completion: 17

Prompt: And the next one, C[C@@H]1CN(CC(=O)N2CC(C)(C)c3c2cc(Cc2ccc(F)cc2)c2nn(-c4ncccn4)c(=O)n32)[C@@H](CN2CCOC[C@H]2C)CN1 [Compound 230] ?
Completion: 38

Prompt: Can you check C[C@@H]1CN(CC(=O)N2CC(C)(C)c3c2cc(Cc2ccc(F)cc2)c2nn([C@H]4CCOC4)c(=O)n32)[C@@H](CN2CCOC[C@H]2C)CN1 [Compound 218] next?
Completion: 47

Prompt: Item: C[C@@H]1CN(CC(=O)N2CC(C)(C)c3c2cc(Cc2ccc(F)cc2)c2ncnn32)[C@@H](CN2Cc3ccc(F)cc3C2=O)CN1 [Compound 101]
Completion: 23
